Experiment: activity coefficient (dimensionless); of the first substance listed, at infinite dilution; xn = mol fraction of the nth substance listed
Conditions: 348.15 K; 101.33 kPa; Liquid; Chromatography; x1 = 0
MEASURED METRIC: activity coefficient

>>> df
                                   molecule  recorded_result
0  CCCC(C)=O [pentan-2-one] + CCCCCCCCCCCC[N+](C)(C)CCOc1ccccc1.N#C[N-]C#N             0.97
1  C=Cc1ccccc1 [styrene] + CCCCCCCCCCCC[N+](C)(C)CCOc1ccccc1.O=S(=O)([N-]S(=O)(=O)C(F)(F)F)C(F)(F)F             0.75
2  C1CCCCC1 [cyclohexane] + CCCCCCCCCCCC[N+](C)(C)CCOc1ccccc1.O=S(=O)([N-]S(=O)(=O)C(F)(F)F)C(F)(F)F             2.11
3  CCCOCCC [dipropyl ether] + CCCCCCCCCCCC[N+](C)(C)CCOc1ccccc1.N#C[N-]C#N             3.54
4  C=CCCCCCCCC [1-decene] + CCCCCCCCCCCC[N+](C)(C)CCOc1ccccc1.N#C[N-]C#N             6.83
5  c1ccncc1 [pyridine] + CCCCCCCCCCCC[N+](C)(C)CCOc1ccccc1.O=S(=O)([N-]S(=O)(=O)C(F)(F)F)C(F)(F)F             0.33
6  C1COCCO1 [1,4-dioxane] + CCCCCCCCCCCC[N+](C)(C)CCOc1ccccc1.O=S(=O)([N-]S(=O)(=O)C(F)(F)F)C(F)(F)F            0.551
